Items are presented alongside their recorded inhibition at 10 µM.
Biological target: thromboxane synthase (TXA2 synthase), bovine platelet microsome (Bos taurus, UniProt Q2KIG5)
Construct: bovine platelet microsome; from tissue; host or cells: bovine platelets (microsome)
Sequence (Q2KIG5 1-533): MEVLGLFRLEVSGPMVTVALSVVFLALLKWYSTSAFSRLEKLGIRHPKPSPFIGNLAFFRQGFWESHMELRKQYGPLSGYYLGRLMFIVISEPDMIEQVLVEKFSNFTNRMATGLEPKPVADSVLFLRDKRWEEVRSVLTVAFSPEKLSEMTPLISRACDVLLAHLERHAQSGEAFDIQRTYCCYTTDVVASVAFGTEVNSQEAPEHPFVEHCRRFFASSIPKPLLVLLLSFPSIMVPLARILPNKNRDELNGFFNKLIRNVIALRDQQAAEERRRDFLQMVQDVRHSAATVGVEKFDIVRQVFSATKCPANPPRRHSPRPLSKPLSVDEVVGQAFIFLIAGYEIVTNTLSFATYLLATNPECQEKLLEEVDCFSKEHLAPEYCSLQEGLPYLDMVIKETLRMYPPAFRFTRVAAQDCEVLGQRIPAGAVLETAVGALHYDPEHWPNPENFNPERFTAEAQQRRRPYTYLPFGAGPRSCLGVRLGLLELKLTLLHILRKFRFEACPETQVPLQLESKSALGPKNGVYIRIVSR
Assay: Test on Inhibition of TXA2 Biosynthesis (bovine platelet microsome, TXB2 by radioimmunoassay)
Type: biochemical
Record the value in %, omitting the unit from your answer.

Completed entries (count: 4):
CN1C(=O)c2cnccc2/C(=C/CCCCC(=O)O)c2ccccc21 [Compound I-20Z] :: -23
O=C(O)CCCC/C=C1\c2ccccc2NC(=O)c2cnccc21 [Compound I-19Z] :: 8
CSC1Nc2ccccc2C(=CCCCCC(=O)O)c2ccncc21 (stereo not shown) [Compound I-22] :: 27
O=C(O)CCCC/C=C1/c2ccccc2NC(=O)c2cnccc21 [Compound I-19E] :: 13

The reported inhibition at 10 µM of the molecule CN1C(=O)c2cnccc2/C(=C\CCCCC(=O)O)c2ccccc21 [Compound I-20E] was 10

Consider O=C(O)CCCCC=C1c2ccncc2CNc2ccccc21 [Compound I-23] . Its measured inhibition at 10 µM is 27

According to the records, this molecule O=C(O)CCCCCC1c2ccccc2NC(=O)c2cnccc21 (stereo not shown) [Compound I-21] displays inhibition at 10 µM of 47
